biological target: Transcription factor Jun (Mus musculus); assay: Inhibition of AP-1-mediated transcriptional activation in lipopolysaccharide-stimulated mouse RAW 264.7 cells assessed ratio of luciferase activity normalized to Renilla luciferase activity by luciferase reporter gene assay
observation_type: Ratio
Give the value as a plain number.

Worked cases, answers included:
{"entry_smiles": "C[C@@]12CCC[C@@](C)(C(=O)O)[C@H]1CC[C@]13CC(=O)O[C@](C)(C1)[C@H](O)C[C@H]32", "Ratio": 2.73}
{"entry_smiles": "C[C@@]12CCC[C@@](C)(C(=O)O)[C@H]1CC[C@@]13CC(=O)O[C@@](CO)(CC[C@H]12)C3", "Ratio": 2.58}
{"entry_smiles": "C[C@@]12CC[C@@H]3[C@@](CC[C@H]4[C@@]3(C)CCC[C@@]4(C)C(=O)O)(CC(=O)O1)C2", "Ratio": 2.38}
{"entry_smiles": "C[C@@H]1C[C@H]2[C@@H]3CCC4=CC(=O)C=C[C@]4(C)[C@@]3(F)[C@@H](O)C[C@]2(C)[C@@]1(O)C(=O)CO", "Ratio": 2.33}

Suppose we examine the molecule "C[C@@]12CC[C@H]3[C@]4(C)CCC[C@@](C)(C(=O)O)[C@H]4C[C@H](O)[C@]3(CC(=O)O1)C2" ; what Ratio value has been reported?
2.39

Suppose we examine the molecule "C[C@@]12CC[C@H]3[C@]4(C)CCC[C@@](C)(C(=O)O)[C@H]4C[C@H](O)[C@]3(CC1=O)C2" ; what Ratio value has been reported?
2.69

Suppose we examine the molecule "CC1=CC[C@@H]2[C@](CC#N)(CC[C@H]3[C@@]2(C)CCC[C@@]3(C)C(=O)O)C1" ; what Ratio value has been reported?
2.22

Suppose we examine the molecule "C[C@@]12CC[C@@H]3[C@@](CC[C@H]4[C@@]3(C)[C@@H](O)CC[C@@]4(C)C(=O)O)(COC1=O)C2" ; what Ratio value has been reported?
2.66

Suppose we examine the molecule "C[C@@]12CC[C@@H]3[C@@](CC1=O)(C2)[C@@H](O)C[C@H]1[C@@]3(C)[C@@H](O)CC[C@@]1(C)C(=O)O" ; what Ratio value has been reported?
2.98

Suppose we examine the molecule "CC1=C[C@@]2(CC#N)CC[C@H]3[C@@](C)(CCC[C@@]3(C)C(=O)O)[C@@H]2CC1" ; what Ratio value has been reported?
2.85

Suppose we examine the molecule "C[C@@]12CC[C@@H]3[C@@](CC[C@H]4[C@@]3(C)CCC[C@@]4(C)C(=O)O)(COC1=O)C2" ; what Ratio value has been reported?
1.88

Suppose we examine the molecule "C[C@@]12CC[C@@H]3[C@@](C/C1=N\O)(C2)[C@H](O)C[C@H]1[C@@]3(C)[C@@H](O)CC[C@@]1(C)C(=O)O" ; what Ratio value has been reported?
2.69

Suppose we examine the molecule "C[C@@]12CC[C@@H]3[C@@](CC[C@H]4[C@@]3(C)CCC[C@@]4(C)C(=O)O)(C/C1=N\O)C2" ; what Ratio value has been reported?
4.87
